System: A549
Assay info: NCI tumour cell line growth inhibition, 48 h
Activity calls are given as the source filed them. Rule as the data show it: active = GI50 up to about 1.1 µM and inactive = higher.
# Lookup of reported GI50 keyed by entry

{"Compound": "COC(=O)c1c(C)ccc2c(O)c3c(cc12)C(=O)c1c2c(cc(O)c1C3=O)C1(C)OC(C)(O2)C(O)C(N(C)C)C1O (stereo not given)", "GI50": "1.28 µM (inactive)"}
{"Compound": "O=Cc1c(C(=O)O)[nH]c(=O)[nH]c1=O", "GI50": "> 100 µM (inactive)"}
{"Compound": "CC(C)C(=O)/C=C/c1ccccc1", "GI50": "> 100 µM (inactive)"}
{"Compound": "CC(NC(=O)C(N)CC(=O)O)NC(=O)N(C)C(C)(C)C (stereo not given)", "GI50": "> 100 µM (inactive)"}
{"Compound": "CCOP(=O)(C/C(=N/NC(C)(C)C)C(=O)Nc1nc2ccc(C)cc2s1)OCC", "GI50": "> 100 µM (inactive)"}
{"Compound": "Cc1cccc2c1Sc1ccccc1C2NC(=O)CCN(C)C (stereo not given)", "GI50": "> 100 µM (inactive)"}
{"Compound": "Cc1cc(NC(=O)NC(=O)c2ccccc2NC(=O)CN(C)C)ccc1Oc1ncc(Br)cn1", "GI50": "3.54 µM (inactive)"}
{"Compound": "CCOC(=O)/C=C/c1cccc(F)c1", "GI50": "> 100 µM (inactive)"}
{"Compound": "CC(C)=CCN1c2ccccc2[C@@]2(CC=C(C)C)CCN(C)[C@@H]12 [(+)-DEBROMOFLUSTRAMINE B]", "GI50": "36.1 µM (inactive)"}
{"Compound": "C#CCN(CC#C)C(=O)C(=O)c1c[nH]c2ccc(OC)cc12", "GI50": "25.7 µM (inactive)"}
{"Compound": "CCOC(=O)c1cc(C2CCN(CC(C)CC)C2=S)c(-c2cc(C)no2)[nH]1 (stereo not given)", "GI50": "51.4 µM (inactive)"}
{"Compound": "C=CCn1c(=O)c(-c2ccccc2)c(O)c2ccccc21", "GI50": "> 100 µM (inactive)"}
{"Compound": "CC1OC(CC(=O)O)CC2=C1C(=O)c1c(O)cccc1C2=O (stereo not given)", "GI50": "2.08 µM (inactive)"}
{"Compound": "c1ccc(C[n+]2ccc3c(c2)CCCC3)cc1", "GI50": "77.3 µM (inactive)"}
{"Compound": "O=C(NCC1Nc2ccncc2S(=O)(=O)N1)c1ccc(Br)cc1 (stereo not given)", "GI50": "> 100 µM (inactive)"}
{"Compound": "COc1ccc(-c2[nH]c3c4c(nc5c(c24)C(=O)CC(C)(C)C5)CC(C)(C)C3)cc1", "GI50": "62.4 µM (inactive)"}
{"Compound": "CCOP(=O)(OCC)C1=NC=CC=CC1n1c(-c2ccccc2)nn(CC)c1=O (stereo not given)", "GI50": "> 100 µM (inactive)"}
{"Compound": "Cc1cc(Br)cc(C)c1NC(=O)C(=O)C(C(=O)c1ccc2ccccc2c1)C1OC(=O)c2ccccc21 (stereo not given)", "GI50": "22.4 µM (inactive)"}
{"Compound": "O=C(c1ccccc1)C1C(C(=O)c2ccccc2)C(c2ccccc2)N(c2ccccc2)C1c1ccccc1 (stereo not given)", "GI50": "> 100 µM (inactive)"}
{"Compound": "Cc1nc(-n2nc(-c3ccccc3)cc2-c2ccccc2)sc1C(=O)/C=C/c1ccc(/C=C/C(=O)c2sc(-n3nc(-c4ccccc4)cc3-c3ccccc3)nc2C)cc1", "GI50": "39 µM (inactive)"}

----------
# Lookup of reported GI50 keyed by entry
System: RXF 393
Assay info: NCI tumour cell line growth inhibition, 48 h
The source made the active and inactive calls. No stated cut-off is given here; in the data, active = GI50 up to about 1.1 µM and inactive = higher.

{"Compound": "Cc1cc(S(=O)(=O)N/C(=N/N)NCCc2ccccc2)c(S)cc1Cl", "GI50": "21.7 µM (inactive)"}
{"Compound": "COc1ccc(C2CC(c3c(O)ccc4ccccc34)=NN2C(C)=O)cc1OC (stereo unspecified)", "GI50": "24.1 µM (inactive)"}
{"Compound": "Cc1ccc(-c2cc(-c3ccc(Cl)cc3)nc(/N=C3\\C(=O)N(CN4CCCCC4)c4ccc(Cl)cc43)n2)cc1", "GI50": "18.3 µM (inactive)"}
{"Compound": "COc1ccc(/N=C2\\C(=O)Nc3ccc(Br)cc32)cc1", "GI50": "18.2 µM (inactive)"}
{"Compound": "CC1=CCC[C@@H]2[C@@](C)(Cc3cc(O)ccc3O)[C@H](C)CC[C@@]12C", "GI50": "6.44 µM (inactive)"}
{"Compound": "C1CCCN(NC2=NCCO2)CC1", "GI50": "> 100 µM (inactive)"}
{"Compound": "CN(C)CCCCN1CCc2c(n(C)c3ccccc23)C1=O", "GI50": "42.1 µM (inactive)"}
{"Compound": "COc1cc(C2SC(=N)Nc3c2c(C)nn3C(=O)c2ccccc2O)cc(OC)c1OC (stereo unspecified)", "GI50": "8.51 µM (inactive)"}
{"Compound": "O=c1[nH]c2c3ccccc3ccc2c2cc3c(cc12)OCO3", "GI50": "28.8 µM (inactive)"}
{"Compound": "[N-]=[N+]=CC(=O)OCC(N)C(=O)O (stereo unspecified)", "GI50": "15.7 µM (inactive)"}
{"Compound": "NC(CCc1ccccc1)(C(=O)O)c1ccccc1 (stereo unspecified)", "GI50": "> 100 µM (inactive)"}

----------
Test system: MDA-MB-231
Assay info: NCI tumour cell line growth inhibition, 48 h
The source made the active and inactive calls. Cut-off read from the data, not from the text of the source: active = GI50 up to about 1.1 µM and inactive = higher.

{"Given smiles": "Cc1cccc2c(N)c3cccc(C(=O)NCC[N+](C)(C)Cc4sccc4[N+](=O)[O-])c3nc12", "System under test": "MDA-MB-231", "GI50": "12 µM (inactive)"}
{"Given smiles": "Cc1cc(S(=O)(=O)n2ccnc2Oc2ccccc2)c(SSc2cc(Cl)c(C)cc2S(=O)(=O)n2ccnc2Oc2ccccc2)cc1Cl", "System under test": "MDA-MB-231", "GI50": "> 100 µM (inactive)"}
{"Given smiles": "Nc1nc2cc(CNc3ccc(C(=O)O)cc3)ccc2nc1-c1ccccc1", "System under test": "MDA-MB-231", "GI50": "> 100 µM (inactive)"}
{"Given smiles": "Cc1cc(S(=O)(=O)N/C(=N/N)NCCc2ccccc2)c(S)cc1Cl", "System under test": "MDA-MB-231", "GI50": "29.6 µM (inactive)"}
{"Given smiles": "CC1(C)N=c2c(ncn2N)=C(C(N)=O)N1", "System under test": "MDA-MB-231", "GI50": "> 100 µM (inactive)"}

----------
# Lookup of reported GI50 keyed by entry
System: SR
Assay info: NCI tumour cell line growth inhibition, 48 h
Calls of active or inactive are those of the source. Rule as the data show it: active = GI50 up to about 1.1 µM and inactive = higher.

{"Molecule": "CN(C)CCCNc1ccc2nnn3c4ccc(O)cc4c(=O)c1c23", "GI50": "0.193 µM (active)"}
{"Molecule": "O=C(N/N=C/c1ccc(Cl)cc1)c1c(Cl)c(Cl)c(Cl)c(Cl)c1-c1nc2ccccc2[nH]1", "GI50": "59.2 µM (inactive)"}
{"Molecule": "[N-]=[N+]=CC(=O)c1ccccc1C#CCCc1ccccc1", "GI50": "28.2 µM (inactive)"}
{"Molecule": "COc1ccc2[nH]c3ccc4cc[n+](CCN5CCC(C6CCN(CC[n+]7ccc8ccc9[nH]c%10ccc(OC)cc%10c9c8c7)CC6)CC5)cc4c3c2c1", "GI50": "0.117 µM (active)"}
{"Molecule": "COc1ccc(/C(Cl)=C(\\CNc2ccccn2)c2ccccc2)cc1OC", "GI50": "> 100 µM (inactive)"}
{"Molecule": "N[C@@H]1CCN(c2c(F)cc3c(=O)c(C(=O)O)cn4c3c2Oc2c-4ccc3c2ccc2ccccc23)C1", "GI50": "0.225 µM (active)"}
{"Molecule": "CC(C)=CCC/C(C)=C/CC/C(C)=C/C1CCC(=O)C1(C)C (centres undefined)", "GI50": "19.7 µM (inactive)"}
{"Molecule": "CN(C)c1ccc(/N=C2/NC(=N\\c3ccccc3)/C(=N/c3ccccc3)S2)cc1", "GI50": "> 100 µM (inactive)"}
{"Molecule": "CCNC(=O)NNc1ncnc2c1c(-c1ccc(Cl)cc1)cn2-c1ccc(C)cc1", "GI50": "20.2 µM (inactive)"}

----------
Tested on: XF498
Assay info: NCI tumour cell line growth inhibition, 48 h
Calls of active or inactive are those of the source. Rule as the data show it: active = GI50 up to about 1.1 µM and inactive = higher.
Outcomes: active, inactive

{"Compound": "CC1C(O)C2(Oc3cc4c(c5c3[C@@H](CC5O)[C@H]2C)CCC2Cc3nc5c(nc3C[C@@]42C)CC2CCC3C4=C[C@H]6O[C@@]7(O[C@@](C)(CO)C[C@@H]7O)C(C)[C@@]6(O)[C@]4(C)[C@@H](O)CC3[C@]2(C)C5)OC1(C)C (some centres undefined)", "Category label": "active"}
{"Compound": "COC(=O)/C=C/C1C(C(=O)OC)C2(C(=O)OC)CCC1(C(=O)OC)N2 (centres undefined)", "Category label": "inactive"}
{"Compound": "C#Cc1c(C)c(/C=C/C(C)=C\\C(=O)OC)n(C)c1C", "Category label": "inactive"}
{"Compound": "Clc1ccc(C2SCc3nc4ccccc4n32)cc1Cl (centres undefined)", "Category label": "inactive"}
